PROTOCOL_DESCRIPTION: Kinetic modeling of urinary aPM with a pseudo one-compartment nonlinear mixed-effects model after α-pinene inhalation
Assay type: in vivo, human
CONDITIONS: human urine after α-pinene inhalation; pseudo one-compartment model
MEASUREMENT_LABEL: Elimination t1/2 (min)
Expressed in min, but write only the number.

// query Recorded Elimination t1/2 of CC1(C)C2CC1C(OC1OC(C(=O)O)C(O)C(O)C1O)C=C2C(=O)O (single isomer, unassigned) [aPM5e, Myrtenic acid-4-O-GlcA] , please.
// result 45.6

// query Note, next up: CC1(C)C2CC=C(C(=O)OC3OC(C(=O)O)C(O)C(O)C3O)C1C2 (single isomer, unassigned) [aPM3b, Myrtenic acid-GlcA]
// result 36.6

// query Note, next up: CC1(C)C2CC1C(OC1OC(C(=O)O)C(O)C(O)C1O)C=C2C(=O)O (single isomer, unassigned) [aPM5f, Myrtenic acid-4-O-GlcA]
// result 57

// query Note, next up: CC1(C)C2CCC(C(=O)OC3OC(C(=O)O)C(O)C(O)C3O)C1C2 (single isomer, unassigned) [aPM4c, Dihydromyrtenic acid-GlcA]
// result 90.6

// query Note, next up: CC1(C)C2CC1C(OC1OC(C(=O)O)C(O)C(O)C1O)C=C2C(=O)O (single isomer, unassigned) [aPM5g, Myrtenic acid-4-O-GlcA]
// result 41.4

// query Note, next up: CC1(C)C2CC1C(OC1OC(C(=O)O)C(O)C(O)C1O)C=C2C(=O)O (single isomer, unassigned) [aPM5c, Myrtenic acid-4-O-GlcA]
// result 52.8

// query Note, next up: CC1(C)C2CCC(C(=O)OC3OC(C(=O)O)C(O)C(O)C3O)C1C2 (single isomer, unassigned) [aPM4e, Dihydromyrtenic acid-GlcA]
// result 59.4

// query Note, next up: CC1(C)C2CC=C(C(=O)OC3OC(C(=O)O)C(O)C(O)C3O)C1C2 (single isomer, unassigned) [aPM3a, Myrtenic acid-GlcA]
// result 55.8

// query Note, next up: CC1(C)C2CCC(C(=O)OC3OC(C(=O)O)C(O)C(O)C3O)C1C2 (single isomer, unassigned) [aPM4d, Dihydromyrtenic acid-GlcA]
// result 60.6

// query Note, next up: CC1(C)C2CC1C(OC1OC(C(=O)O)C(O)C(O)C1O)C=C2C(=O)O (single isomer, unassigned) [aPM5a, Myrtenic acid-4-O-GlcA]
// result 60

// query Note, next up: CC1(C)C2CCC(C(=O)OC3OC(C(=O)O)C(O)C(O)C3O)C1C2 (single isomer, unassigned) [aPM4a, Dihydromyrtenic acid-GlcA]
// result 42.6

// query Note, next up: CC1(C)C2CC1C(OC1OC(C(=O)O)C(O)C(O)C1O)C=C2C(=O)O (single isomer, unassigned) [aPM5b, Myrtenic acid-4-O-GlcA]
// result 52.2

// query Note, next up: CC1(C)C2CCC(C(=O)OC3OC(C(=O)O)C(O)C(O)C3O)C1C2 (single isomer, unassigned) [aPM4b, Dihydromyrtenic acid-GlcA]
// result 47.4

// query Note, next up: CC1(C)C2CC1C(OC1OC(C(=O)O)C(O)C(O)C1O)C=C2C(=O)O (single isomer, unassigned) [aPM5d, Myrtenic acid-4-O-GlcA]
// result 78.6

* * *

PROTOCOL_DESCRIPTION: Kinetic modeling of urinary aPM with a pseudo one-compartment nonlinear mixed-effects model after α-pinene inhalation
Type: in vivo, human
CONDITIONS: human urine after α-pinene inhalation; pseudo one-compartment model
Given measured Ke, first-order elimination rate constant, output TRUE if it is greater than or equal to 0.8 h⁻¹ and FALSE if not.

// query Check if Ke, first-order elimination rate constant >= 0.8 h⁻¹ (inclusive). Item: CC1(C)C2CCC(C(=O)OC3OC(C(=O)O)C(O)C(O)C3O)C1C2 (single isomer, unassigned) [aPM4b, Dihydromyrtenic acid-GlcA]
// result TRUE

// query Note, next up: CC1(C)C2CC1C(OC1OC(C(=O)O)C(O)C(O)C1O)C=C2C(=O)O (single isomer, unassigned) [aPM5d, Myrtenic acid-4-O-GlcA]
// result FALSE

// query Note, next up: CC1(C)C2CCC(C(=O)OC3OC(C(=O)O)C(O)C(O)C3O)C1C2 (single isomer, unassigned) [aPM4a, Dihydromyrtenic acid-GlcA]
// result TRUE

// query Note, next up: CC1(C)C2CC1C(OC1OC(C(=O)O)C(O)C(O)C1O)C=C2C(=O)O (single isomer, unassigned) [aPM5g, Myrtenic acid-4-O-GlcA]
// result TRUE

// query Note, next up: CC1(C)C2CCC(C(=O)OC3OC(C(=O)O)C(O)C(O)C3O)C1C2 (single isomer, unassigned) [aPM4d, Dihydromyrtenic acid-GlcA]
// result FALSE

// query Note, next up: CC1(C)C2CCC(C(=O)OC3OC(C(=O)O)C(O)C(O)C3O)C1C2 (single isomer, unassigned) [aPM4c, Dihydromyrtenic acid-GlcA]
// result FALSE

// query Note, next up: CC1(C)C2CC1C(OC1OC(C(=O)O)C(O)C(O)C1O)C=C2C(=O)O (single isomer, unassigned) [aPM5f, Myrtenic acid-4-O-GlcA]
// result FALSE
